Test system: Gene 2
Experiment: Gene modulating activity in colon cancer cells (RT-PCR RNA expression), Gene 2
Type: cell-based, human
Settings: HT29 cell line (colon tumor), compound 10 μM, 24 hours, vs control
I'd be grateful if you could share measured Gene 2 Folds of up (+) or down (−) regulatlon for these entries.
Numbers only, in Folds.

Consider the reported Gene 2 Folds of up (+) or down (−) regulatlon for these compounds:
{"compound": "CCCN(C(=O)c1ccccc1)C1CCCC1Sc1ccccc1 (stereo not shown)", "valueMeasured": 1.4}
{"compound": "CCCN(C(=O)Nc1ccc(-c2ccccc2)cc1)C1COCC1SC (stereo not shown)", "valueMeasured": "−1.1"}
{"compound": "CSC1CCCC1NC(=O)Nc1cccc(Cl)c1 (stereo not shown)", "valueMeasured": 2.3}

# per-item lookup of Gene 2 Folds of up (+) or down (−) regulatlon; items listed below
1. CN(C(=O)C1CCC1)C1CCCCC1Sc1ccccc1 (stereo not shown)
2. O=C(Nc1ccc(-c2ccccc2)cc1)N(Cc1ccccc1)C1CCCC1Sc1ccccc1 (stereo not shown)
3. CC(C)CN(C(=O)c1ccccc1)C1CCCC1Sc1ccccc1 (stereo not shown)
4. COCCN(C(=O)COc1ccccc1)C1CCCC1Sc1ccccc1 (stereo not shown)

1: −1.7; 2: 3.7; 3: 2.8; 4: 1.7

---

Tested on: Gene 8
Assay: Gene modulating activity in colon cancer cells (RT-PCR RNA expression), Gene 8
Type: cell-based, human
Conditions: HT29 cell line (colon tumor), compound 10 μM, 24 hours, vs control
Threshold-based label: Gene 8 Folds of up (+) or down (−) regulatlon under -2 Folds gives Condition met, Gene 8 Folds of up (+) or down (−) regulatlon not under -2 Folds gives Condition not met.

is_below(Gene 8 Folds of up (+) or down (−) regulatlon, -2 Folds) for CC(C)CN(C(=O)c1ccccc1)C1CCCC1Sc1ccccc1 (stereo not shown) ?
Condition not met

Input CN(C(=O)C1CCC1)C1CCCCC1Sc1ccccc1 (stereo not shown) ; condition: Gene 8 Folds of up (+) or down (−) regulatlon strictly below -2 Folds. Does it hold?
Condition not met

Confirm or reject: Gene 8 Folds of up (+) or down (−) regulatlon of CCCN(C(=O)Nc1ccc(-c2ccccc2)cc1)C1COCC1SC (stereo not shown) lies strictly below -2 Folds
Condition met

Below -2 Folds on Gene 8 Folds of up (+) or down (−) regulatlon? Entry O=C(Nc1ccc(-c2ccccc2)cc1)N(Cc1ccccc1)C1CCCC1Sc1ccccc1 (stereo not shown)
Condition met

In plain terms, does COCCN(C(=O)COc1ccccc1)C1CCCC1Sc1ccccc1 (stereo not shown) come in under -2 Folds for Gene 8 Folds of up (+) or down (−) regulatlon?
Condition not met

Hi there! Is Gene 8 Folds of up (+) or down (−) regulatlon for CCCN(C(=O)c1ccccc1)C1CCCC1Sc1ccccc1 (stereo not shown) below -2 Folds, do you know?
Condition not met

Just wondering, is Gene 8 Folds of up (+) or down (−) regulatlon of CSC1CCCC1NC(=O)Nc1cccc(Cl)c1 (stereo not shown) below -2 Folds?
Condition not met

---

System: Gene 4
Assay: Gene modulating activity in colon cancer cells (RT-PCR RNA expression), Gene 4
Type: cell-based, human
Details: HT29 cell line (colon tumor), compound 10 μM, 24 hours, vs control
propertyMeasured: Gene 4 Folds of up (+) or down (−) regulatlon (Folds)
Numbers only, in Folds.

Example cases with answers are listed next.
{"compound": "CSC1CCCC1NC(=O)Nc1cccc(Cl)c1 (stereo not shown)", "valueMeasured": 1.9}
{"compound": "CCCN(C(=O)c1ccccc1)C1CCCC1Sc1ccccc1 (stereo not shown)", "valueMeasured": 1.4}
{"compound": "CCCN(C(=O)Nc1ccc(-c2ccccc2)cc1)C1COCC1SC (stereo not shown)", "valueMeasured": "−1.3"}

Would you mind giving Gene 4 Folds of up (+) or down (−) regulatlon for every compound in the list below?
1. COCCN(C(=O)COc1ccccc1)C1CCCC1Sc1ccccc1 (stereo not shown)
2. CN(C(=O)C1CCC1)C1CCCCC1Sc1ccccc1 (stereo not shown)
3. CC(C)CN(C(=O)c1ccccc1)C1CCCC1Sc1ccccc1 (stereo not shown)
4. O=C(Nc1ccc(-c2ccccc2)cc1)N(Cc1ccccc1)C1CCCC1Sc1ccccc1 (stereo not shown)

1: 2.0; 2: −1.7; 3: 2.8; 4: 1.1

---

Test system: Gene 10
Assay: Gene modulating activity in colon cancer cells (RT-PCR RNA expression), Gene 10
Format: cell-based, human
Details: HT29 cell line (colon tumor), compound 10 μM, 24 hours, vs control
propertyMeasured: Gene 10 Folds of up (+) or down (−) regulatlon (Folds)
Numbers only, in Folds.

Look over these answered cases.
{"compound": "CC(C)CN(C(=O)c1ccccc1)C1CCCC1Sc1ccccc1 (centres unmarked) [AV-96]", "valueMeasured": 1.9}
{"compound": "CN(C(=O)C1CCC1)C1CCCCC1Sc1ccccc1 (centres unmarked) [AV-283]", "valueMeasured": "−3.0"}
{"compound": "CCCN(C(=O)c1ccccc1)C1CCCC1Sc1ccccc1 (centres unmarked) [AV-221]", "valueMeasured": "−6.5"}
{"compound": "COCCN(C(=O)COc1ccccc1)C1CCCC1Sc1ccccc1 (centres unmarked) [AV-1241]", "valueMeasured": 13.0}

// next item, Gene 10 Folds of up (+) or down (−) regulatlon requested
The recorded Gene 10 Folds of up (+) or down (−) regulatlon for entry CSC1CCCC1NC(=O)Nc1cccc(Cl)c1 (centres unmarked) [AV-988] equals −4.6
